# assay_info: MTT cell viability assay in HeLa cells
# Format: cell-based
# experimental_parameters: human
*1 amine or outer side, *2 acyl side, *3 side chain or, on linkers, in order; H or OH if unused. Where a SMILES comes first, the peptide text is derived from it. Bridges are numbered along the chain shown (N, C = ends). [ ]: non-standard residue; d: D form. Trp(2-yl) = O=C([C@H](Cc1c([*:3])[nH]c2ccccc12)N[*:1])[*:2]; hCys = N[C@@H](CCS)C(=O)O; Ahx = NCCCCCC(=O)O
measure: viability at 48 h, 100 µM

Query: I am curious: what viability at 48 h, 100 µM value has been reported for CC(C)C[C@@H]1NC(=O)[C@H](CCCNC(=N)N)NC(=O)[C@@H](NC(=O)CCCCCNC(=O)CCCCCNC(=O)[C@H](CCCNC(=N)N)NC(=O)[C@H](CCCNC(=N)N)NC(=O)[C@@H](N)CCCNC(=N)N)CCSc2[nH]c3ccccc3c2C[C@@H](C(N)=O)NC(=O)[C@H](CCCCN)NC(=O)[C@H](Cc2ccccc2)NC(=O)CNC(=O)[C@H](Cc2ccc(O)cc2)NC1=O [Peptide R3-P8C9] (H-RRR[Ahx][Ahx][hCys]RLYGFK[Trp(2-yl)]-NH2; thioether 6-13) ?
Result: 54%
